Target: Sphingosine kinase 2 (Mus musculus, UniProt Q9JIA7)
Sequence (Q9JIA7 whole entry): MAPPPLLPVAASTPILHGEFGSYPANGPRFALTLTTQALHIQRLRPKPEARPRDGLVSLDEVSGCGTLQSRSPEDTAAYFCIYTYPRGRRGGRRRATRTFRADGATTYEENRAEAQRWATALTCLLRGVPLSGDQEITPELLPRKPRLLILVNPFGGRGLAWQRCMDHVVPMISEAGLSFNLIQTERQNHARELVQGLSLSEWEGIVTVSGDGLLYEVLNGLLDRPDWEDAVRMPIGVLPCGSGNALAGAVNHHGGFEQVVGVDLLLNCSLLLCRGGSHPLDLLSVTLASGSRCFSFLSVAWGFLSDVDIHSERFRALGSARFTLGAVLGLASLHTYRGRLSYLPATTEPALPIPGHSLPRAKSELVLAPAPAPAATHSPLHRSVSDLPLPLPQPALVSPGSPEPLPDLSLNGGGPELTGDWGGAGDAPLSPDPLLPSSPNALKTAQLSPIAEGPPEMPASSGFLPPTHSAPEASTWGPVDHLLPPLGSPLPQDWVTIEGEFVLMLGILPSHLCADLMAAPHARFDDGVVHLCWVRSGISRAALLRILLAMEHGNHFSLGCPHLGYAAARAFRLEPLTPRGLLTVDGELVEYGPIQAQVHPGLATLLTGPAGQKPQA
Experiment: Inhibition of recombinant mouse SphK2 expressed in baculovirus infected sf9 cells using D-erythro-sphingosine as substrate in presence of [gamma-33P]ATP by scintillation counting method
Recorded Metric: Ki (µM)
Just the number in µM, nothing appended.

Request: Which value of Ki has been reported for "CCCCCCCCCCCCc1ccc(-c2noc(C3(C(=N)N)CC3)n2)cc1" in the records?
Result: 14.1

----------
IC50 listing for selected molecules.
Molecular target: Sphingosine kinase 1 (Homo sapiens)
Test: Inhibition of recombinant N-terminal GST-tagged human SphK1 (1 to 384 residues) expressed in baculovirus expression system using sphingosine as substrate after 1 hr in presence of ATP by off-chip mobility shift assay
Just the number in µM, nothing appended.

# Compound Smiles, Test System, IC50 / µM
data = [
    ("CCCCCCCOCCCCCC[C@@H]1OC[C@@H](N)[C@@H]1O", "Sphingosine kinase 1 (Homo sapiens)", 9.6),
    ("CCCCCCCCc1ccc(CC[C@@H]2OC[C@@H](N)[C@@H]2O)cc1", "Sphingosine kinase 1 (Homo sapiens)", 1.4),
    ("CCCCCCCCCCCCc1ccc(CC[C@@H]2OC[C@@H](N)[C@@H]2O)cc1", "Sphingosine kinase 1 (Homo sapiens)", 0.88),
    ("CCCCCCCCCCCCCC[C@@H]1OC[C@@H](NC(C)=N)[C@@H]1O", "Sphingosine kinase 1 (Homo sapiens)", 3.1),
    ("CCCCCCCCCc1cccc(CC[C@@H]2OC[C@@H](N)[C@@H]2O)c1", "Sphingosine kinase 1 (Homo sapiens)", 12),
    ("CCCCCCCCc1cccc(CC[C@@H]2OC[C@@H](N)[C@@H]2O)c1", "Sphingosine kinase 1 (Homo sapiens)", 16),
    ("CCCCCCCCCCCCCC[C@@H]1OC[C@@H](NC(=N)N)[C@@H]1O", "Sphingosine kinase 1 (Homo sapiens)", 1.1),
    ("CCCCCCCCCCCCCC[C@@H]1OC[C@@H](N)[C@@H]1OC", "Sphingosine kinase 1 (Homo sapiens)", 4),
]

Pending molecule:
Request: Which value of IC50 has been reported for "CCCCCCCCCCc1ccc(CC[C@@H]2OC[C@@H](N)[C@@H]2O)cc1" in the records?
Result: 0.42

----------
IC50 listing for selected molecules.
Biological target: Sphingosine kinase 2 (Homo sapiens, UniProt Q9NRA0)
Sequence (Q9NRA0 whole entry, the tested form may be a part): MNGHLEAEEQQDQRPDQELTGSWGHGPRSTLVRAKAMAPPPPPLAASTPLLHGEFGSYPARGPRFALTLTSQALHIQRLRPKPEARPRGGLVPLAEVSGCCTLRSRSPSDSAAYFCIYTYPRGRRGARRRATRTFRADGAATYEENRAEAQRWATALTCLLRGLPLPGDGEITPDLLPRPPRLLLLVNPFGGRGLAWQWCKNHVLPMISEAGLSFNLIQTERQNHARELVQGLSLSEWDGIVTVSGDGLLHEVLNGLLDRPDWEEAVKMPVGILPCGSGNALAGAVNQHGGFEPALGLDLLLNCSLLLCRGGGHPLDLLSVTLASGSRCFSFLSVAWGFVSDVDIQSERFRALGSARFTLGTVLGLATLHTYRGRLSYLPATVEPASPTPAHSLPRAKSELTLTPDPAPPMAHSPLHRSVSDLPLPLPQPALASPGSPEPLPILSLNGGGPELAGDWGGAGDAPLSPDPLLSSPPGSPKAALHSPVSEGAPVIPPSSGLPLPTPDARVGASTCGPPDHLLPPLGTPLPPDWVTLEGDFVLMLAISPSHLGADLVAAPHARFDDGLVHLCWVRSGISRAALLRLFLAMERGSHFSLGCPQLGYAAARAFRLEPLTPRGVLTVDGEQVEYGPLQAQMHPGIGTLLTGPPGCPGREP
Assay: Inhibition of recombinant N-terminal GST-tagged human SphK2 (1 to 618 residues) expressed in baculovirus expression system using sphingosine as substrate after 1 hr in presence of ATP by off-chip mobility shift assay
Just the number in µM, nothing appended.

Would you please look over these solved cases?
# Compound Smiles, Test System, Readout Units, Readout Number
measured = [
    ("N[C@@H]1CO[C@@H](CCCCCCCCCCOCC2CCCCC2)[C@H]1O", "Sphingosine kinase 2 (Homo sapiens, UniProt Q9NRA0)", "µM", 0.24),
    ("CCCCCCCCCCCCCC[C@@H]1OC[C@@H](NC(C)=N)[C@@H]1O", "Sphingosine kinase 2 (Homo sapiens, UniProt Q9NRA0)", "µM", 9.4),
]

Pending molecule:
Request: Which value of IC50 has been reported for "CCCCCCCCCc1cccc(CC[C@@H]2OC[C@@H](N)[C@@H]2O)c1" in the records?
Result: 1.7

----------
IC50 listing for selected compounds.
Target: Sphingosine kinase 1 (Homo sapiens, UniProt Q9NYA1)
Sequence (Q9NYA1 whole entry, the tested form may be a part): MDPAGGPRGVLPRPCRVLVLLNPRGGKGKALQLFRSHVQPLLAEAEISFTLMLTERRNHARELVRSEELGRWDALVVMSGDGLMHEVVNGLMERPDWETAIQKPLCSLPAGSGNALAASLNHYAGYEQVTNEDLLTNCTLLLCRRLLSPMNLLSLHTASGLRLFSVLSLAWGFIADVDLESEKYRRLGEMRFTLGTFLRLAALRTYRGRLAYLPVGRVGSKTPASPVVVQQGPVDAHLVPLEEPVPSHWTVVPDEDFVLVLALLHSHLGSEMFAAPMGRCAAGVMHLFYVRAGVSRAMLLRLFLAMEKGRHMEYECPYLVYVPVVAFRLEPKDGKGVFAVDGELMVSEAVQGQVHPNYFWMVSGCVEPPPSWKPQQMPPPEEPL
Assay: Inhibition of recombinant N-terminal GST-tagged human SphK1 (1 to 384 residues) expressed in baculovirus expression system using sphingosine as substrate after 1 hr in presence of ATP by off-chip mobility shift assay

Would you please look over these solved cases?
# Compound Smiles, Test System, IC50
records = [
    ("CCCCCCCCCCCCCC[C@@H]1OC[C@@H](N)[C@@H]1O", "Sphingosine kinase 1 (Homo sapiens, UniProt Q9NYA1)", "0.82 to 1.1 µM"),
    ("CCCCCCCCCCCCCC[C@@H]1OC[C@@H](NC(C)=O)[C@@H]1O", "Sphingosine kinase 1 (Homo sapiens, UniProt Q9NYA1)", "> 30 µM"),
    ("CCCCCCCc1cccc(CC[C@@H]2OC[C@@H](N)[C@@H]2O)c1", "Sphingosine kinase 1 (Homo sapiens, UniProt Q9NYA1)", "> 30 µM"),
]

Request: Which value of IC50 has been reported for "CCCCCCCCc1ccccc1CC[C@@H]1OC[C@@H](N)[C@@H]1O" in the records?
Result: > 30 µM

Request: Which value of IC50 has been reported for "CCCCCCCCCCCCCCc1ccc(CC[C@@H]2OC[C@@H](N)[C@@H]2O)cc1" in the records?
Result: > 30 µM

Request: Which value of IC50 has been reported for "CCCCCCCCCOCCCC[C@@H]1OC[C@@H](N)[C@@H]1O" in the records?
Result: > 30 µM

----------
Biological target: UniProtKB Q9NRA0
Test: Inhibition of recombinant N-terminal GST-tagged human SphK2 (1 to 618 residues) expressed in baculovirus expression system using sphingosine as substrate after 1 hr in presence of ATP by off-chip mobility shift assay
Recorded Metric: IC50

# Compound Smiles, IC50
measured = [
    ("CCCCCCCCCOCCCC[C@@H]1OC[C@@H](N)[C@@H]1O", "> 30 µM"),
    ("CCCCCCCCCCCCCCc1ccc(CC[C@@H]2OC[C@@H](N)[C@@H]2O)cc1", "> 30 µM"),
    ("CCCCCCCCCCCCCC[C@@H]1OC[C@@H](N)[C@@H]1O", "0.6 to 0.74 µM"),
]

Pending compound:
Request: Which value of IC50 has been reported for "CCCCCCCCCCCCCC[C@@H]1OC[C@@H](NC(C)=O)[C@@H]1O" in the records?
Result: > 30 µM
